Source of measurements: paper PMC11279465

As a worked illustration, we turn to pKi data collected for hCA IX (Homo sapiens, UniProt Q16790).
pKi: −log10 of the molar value.
PROPERTY_MEASURED: pKi

[
  {
    "COMPOUND": "COc1cc(/C=C/CN2CCN(CCCCOc3ccc4c(C)cc(=O)oc4c3)CC2)cc(OC)c1OC [Compound 6]",
    "OBSERVED_VALUE": 7.23
  },
  {
    "COMPOUND": "COc1cc(CN2CCN(CCCOc3ccc4oc(=O)ccc4c3)CC2)cc(OC)c1OC [Compound 20]",
    "OBSERVED_VALUE": 7.14
  },
  {
    "COMPOUND": "COc1cc(/C=C/CN2CCN(CCOc3ccc4ccc(=O)oc4c3)CC2)cc(OC)c1OC [Compound 1]",
    "OBSERVED_VALUE": 7.29
  },
  {
    "COMPOUND": "COc1cc(/C=C/CN2CCN(CCOc3ccc4oc(=O)cc(C)c4c3)CC2)cc(OC)c1OC [Compound 10]",
    "OBSERVED_VALUE": 6.44
  }
]

1: COc1ccc(C(CCCN2CCN(CCCCOc3ccc4c(C)cc(=O)oc4c3)CC2)c2ccc(OC)cc2)cc1 [Compound 30]
2: COc1cc(/C=C/CN2CCN(CCOc3ccc4oc(=O)ccc4c3)CC2)cc(OC)c1OC [Compound 7]
3: COc1cc(CN2CCN(CCCCOc3ccc4oc(=O)cc(C)c4c3)CC2)cc(OC)c1OC [Compound 24]
4: COc1cc(CN2CCN(CCCOc3ccc4c(C)cc(=O)oc4c3)CC2)cc(OC)c1OC [Compound 17]
5: COc1cc(CN2CCN(CCCCOc3ccc4c(C)cc(=O)oc4c3)CC2)cc(OC)c1OC [Compound 18]
Task item: Put these in order: smallest pKi first, largest last. Form entry: labels listed in requested order.
Reply: 3, 1, 2, 5, 4

* * *

Tested on: A549/DOX cells
PROTOCOL_NOTES: Doxorubicin co-administration assay (MTT)
Type: cell-based, human
ASSAY_CONDITIONS: compound at 3 µM + doxorubicin 5 µM, 48 h
PROPERTY_MEASURED: reduction in cell viability

[
  {
    "SMILES_INPUT": "COc1cc(/C=C/CN2CCN(CCOc3ccc4ccc(=O)oc4c3)CC2)cc(OC)c1OC",
    "TARGET_DESC": "A549/DOX cells",
    "reduction in cell viability": "~55.0%"
  },
  {
    "SMILES_INPUT": "COc1ccc(C(CCCN2CCN(CCCCOc3ccc4oc(=O)ccc4c3)CC2)c2ccc(OC)cc2)cc1",
    "TARGET_DESC": "A549/DOX cells",
    "reduction in cell viability": "62.6%"
  },
  {
    "SMILES_INPUT": "COc1cc(CN2CCN(CCCOc3ccc4ccc(=O)oc4c3)CC2)cc(OC)c1OC",
    "TARGET_DESC": "A549/DOX cells",
    "reduction in cell viability": "~55.0%"
  },
  {
    "SMILES_INPUT": "COc1cc(CN2CCN(CCOc3ccc4oc(=O)ccc4c3)CC2)cc(OC)c1OC",
    "TARGET_DESC": "A549/DOX cells",
    "reduction in cell viability": "~55.0%"
  }
]

Switching to the query record.
Task item: If you can, please state the reported reduction in cell viability value of COc1cc(/C=C/CN2CCN(CCCOc3ccc4ccc(=O)oc4c3)CC2)cc(OC)c1OC .
Reply: ~55.0%
